Biological target: TbrCatL (Trypanosoma brucei rhodesiense)
Construct: Conor Caffrey (University of California San Diego)
Test: TbrCatL enzymatic inhibition assay (cleavage of fluorogenic substrate Z-FR-AMC);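 as to TbrCatL Inhibition 10’: at 5 µM compound concentration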
Assay type: biochemical
Conditions: 10’ (pre-incubation); sheet Screening results
measured.quantity: TbrCatL Inhibition 10’ (%)
Field: numeric (%). Do not append units.

O=C(Nc1nc(-c2ccccn2)cs1)C1CC1c1ccccc1F (stereo not shown) | 3.6
CC(C)(C(=O)Nc1ccc(F)cc1)n1cc(-c2ccccc2F)cn1 | -6
O=C(NCc1nnc2n1CCCCC2)c1ccc(-c2ccc(F)cc2)o1 | -2.4
CC(C)(C)n1nc(Cc2ccc(F)c(Cl)c2)c2c(N)ncnc21 | -13
CC1CC1C(=O)NC1CCN(CC2(c3ccccc3)CCCCC2)CC1 (stereo not shown) | 3.8

Record `Cc1ccc(S(=O)(=O)N2CCN(C(=O)c3cc(-c4ccccc4)n[nH]3)CC2)cc1` . Reported TbrCatL Inhibition 10’: -2.5

----------
The reader will find reported inhibition at 5 µM values listed item by item below.
Molecular target: TbrCatL (Trypanosoma brucei rhodesiense)
Construct: Conor Caffrey (University of California San Diego)
Test: TbrCatL enzymatic inhibition assay (cleavage of fluorogenic substrate Z-FR-AMC)
Assay type: biochemical
Settings: read-out: Inhibition at 5 µM (Mean ± SEM %) TbrCatL 0′
Field: numeric (%). Do not append units.

Cn1ccnc1CNCCS(=O)(=O)c1cccc(Nc2ccc(-c3cccc(F)c3)cn2)c1 | 29
N=C(N)Nc1ccc(-c2ccc(-c3ccc(NC(=N)N)cc3Cl)o2)c(Cl)c1 | 50
COc1ccc(C2=NN(C3CCCCCC3)C(=O)[C@H]3CC=CC[C@@H]23)cc1OCCCCOc1ccc(-c2nn[nH]n2)cc1 | 6

Here is the next item to consider.
Record `N=C(N)Nc1ccc(-c2ccc(-c3ccc(NC(=N)N)c(Cl)c3)o2)cc1Cl` . Reported inhibition at 5 µM: 53

----------
The reader will find reported Cruzain Inhibition 0’ values listed item by item below.
Target: cruzain (Trypanosoma cruzi);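 also: at 5 µM compound concentration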
Sequence (P25779 123-337 limits assumed): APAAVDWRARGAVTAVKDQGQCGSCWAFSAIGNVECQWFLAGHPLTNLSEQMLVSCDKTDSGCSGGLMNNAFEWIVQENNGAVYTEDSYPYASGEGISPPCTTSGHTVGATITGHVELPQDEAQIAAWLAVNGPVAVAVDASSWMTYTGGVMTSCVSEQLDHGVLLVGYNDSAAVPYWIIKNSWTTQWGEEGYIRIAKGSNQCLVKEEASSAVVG
Assay: biochemical
Conditions: 0’ (pre-incubation time); Pathogen Box screening results
Field: numeric (%). Do not append units.

COc1cccc(-n2nnnc2S(C)(=O)=O)c1 | -1.3

Record NCC(c1cccs1)S(=O)(=O)c1ccccc1 (centres unmarked) . Reported Cruzain Inhibition 0’: 2.3

Record `CO/N=C(/C(=O)OC)c1ccccc1CO/N=C(/C)c1cccc(C(F)(F)F)c1` . Reported Cruzain Inhibition 0’: 0.9

Record CCC(C)NC(=O)c1ccc(NC(=O)C2(c3ccccc3)CCCC2)cc1 (centres unmarked) . Reported Cruzain Inhibition 0’: 0.6

Record `CC(C)(C)C(=O)N(CCCCCCN1C[C@H](O)[C@@H](O)[C@H](O)[C@H]1CO)C1CCCCCC1` . Reported Cruzain Inhibition 0’: -1.2

----------
Target: TbrCatL (Trypanosoma brucei rhodesiense, UniProt Q95PM0)
Construct: Conor Caffrey (University of California San Diego)
Sequence (Q95PM0 entry or part of it): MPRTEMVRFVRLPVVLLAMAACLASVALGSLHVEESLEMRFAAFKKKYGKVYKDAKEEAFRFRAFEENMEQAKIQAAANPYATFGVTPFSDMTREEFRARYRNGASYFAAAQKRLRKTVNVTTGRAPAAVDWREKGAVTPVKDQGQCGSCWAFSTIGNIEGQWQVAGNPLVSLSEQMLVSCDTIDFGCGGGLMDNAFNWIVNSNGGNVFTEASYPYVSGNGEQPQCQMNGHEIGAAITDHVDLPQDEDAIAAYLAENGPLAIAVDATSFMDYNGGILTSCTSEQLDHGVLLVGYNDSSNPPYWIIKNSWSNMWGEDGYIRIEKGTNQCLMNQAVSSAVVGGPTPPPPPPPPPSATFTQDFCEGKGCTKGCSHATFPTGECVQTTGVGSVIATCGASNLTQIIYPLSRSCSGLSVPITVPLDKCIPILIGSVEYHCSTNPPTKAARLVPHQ
Test: TbrCatL enzymatic inhibition assay (cleavage of fluorogenic substrate Z-FR-AMC);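 as to TbrCatL 0’ Inhibition: at 5 µM compound concentration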
Type: biochemical
Settings: 0’ (pre-incubation time); sheet "Screening results"
Procedure: Allison Doak and Prof. Brian Shoichet (University of California San Francisco, San Francisco, CA, USA) and Prof. Conor Caffrey (University of California San Diego, San Diego, CA, USA) generously provided recombinant cruzain and TbrCatL, respectively. In vitro activity of proteases cruzain and TbrCatL was assayed as previously described. Briefly, enzyme activity was measured by monitoring the cleavage of the fluorogenic substrate Z-Phe-Arg-amidomethylcoumarin (Z-FR-AMC) at 25 °C. […]
measured.quantity: TbrCatL 0’ Inhibition (%)
Field: numeric (%). Do not append units.

Guide cases for TbrCatL 0’ Inhibition, answers given:
Cn1c(=O)c2c(S(C)(=O)=O)snc2n(C)c1=O | 2.7
Nc1ncc(-c2cn[nH]c2)cc1-c1nc2cc(Cl)cnc2[nH]1 | 3.3

Record `C[C@H]1CS(=O)(=O)CCN1/N=C/c1ccc([N+](=O)[O-])o1` . Reported TbrCatL 0’ Inhibition: 5

Record `Cc1cc(NCCc2ccccc2)nc(NC(=N)Nc2ccc(Cl)cc2)n1` . Reported TbrCatL 0’ Inhibition: -3.6

Record `CCCCN(CCCC)c1c(C#N)cc(S(=O)(=O)Nc2ccccc2)cc1C#N` . Reported TbrCatL 0’ Inhibition: -4.5

----------
Molecular target: TbrCatL (Trypanosoma brucei rhodesiense)
Construct: Conor Caffrey (University of California San Diego)
Assay: TbrCatL enzymatic inhibition assay (cleavage of fluorogenic substrate Z-FR-AMC);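 as to TbrCatL 10’ Inhibition: at 5 µM compound concentration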
Type: biochemical
Conditions: read-out: TbrCatL 10’ Inhibition
The reader will find reported inhibition at 5 µM values listed item by item below.
Field: numeric (%). Do not append units.

Guide cases for inhibition at 5 µM, answers given:
CN1CCN(S(=O)(=O)c2ccc(-c3ccc4c(Nc5ccc6nn[nH]c6c5)ccnc4c3)cc2)CC1 | 49
CN1CCN(CCCOc2ncc(Nc3ncc(-c4ccc(C(F)(F)F)c(F)c4)nc3C(N)=O)cn2)CC1 | 5.3
N=C(N)Nc1ccc(-c2ccc(-c3ccc(NC(=N)N)cc3Cl)o2)c(Cl)c1 | 58

Here is the next item to consider.
Record `COc1cc(C2=NCCN2)cc2cc(-c3ccc(C4=NCCN4)cc3)oc12` . Reported inhibition at 5 µM: 43

----------
The reader will find reported TbrCatL 10’ Inhibition values listed item by item below.
Biological target: TbrCatL (Trypanosoma brucei rhodesiense)
Construct: Conor Caffrey (University of California San Diego)
Experiment: TbrCatL enzymatic inhibition assay (cleavage of fluorogenic substrate Z-FR-AMC);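 as to TbrCatL 10’ Inhibition: at 5 µM compound concentration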
Assay type: biochemical
Conditions: 10’ (pre-incubation time); sheet "Screening results"
Field: numeric (%). Do not append units.

Guide cases for TbrCatL 10’ Inhibition, answers given:
C[C@@H]1[C@H](O)[C@@H](C)/C=C/C=C/C=C/C=C/C=C/C=C/C=C/[C@H](O[C@@H]2O[C@H](C)[C@@H](O)[C@H](N)[C@@H]2O)C[C@@H]2O[C@](O)(C[C@@H](O)C[C@@H](O)[C@H](O)CC[C@@H](O)C[C@@H](O)CC(=O)O[C@H]1C)C[C@H](O)[C@H]2C(=O)O | 9
NC(=O)c1cc(-c2ccsc2)ccc1OCCOc1ccccc1 | -2.4
COc1ccc2nccc(NC(=O)C3CCN(CCc4ccc(Cl)cc4)CC3)c2n1 | -1.5
CCCCN(CCCC)c1c(C#N)cc(S(=O)(=O)Nc2ccccc2)cc1C#N | 8
CNC(=O)CNc1nc(-c2ccccn2)nc2scc(-c3ccccc3)c12 | -7

Record `CCCS(=O)(=O)N1CCC(CO)(Cc2ccccc2C(F)(F)F)CC1` . Reported TbrCatL 10’ Inhibition: -0.8

Record `CC(C)(C)c1cc(C(=O)N2CCN(c3nccnc3C#N)CC2)n(Cc2ccccc2)n1` . Reported TbrCatL 10’ Inhibition: -3

Record CNC(=O)C1Cc2c([nH]c3cc(Cl)ccc23)C2(CCN(CCc3ccccc3)CC2)N1 (centres unmarked) . Reported TbrCatL 10’ Inhibition: -8

Record `O=C(Nc1ccc(F)c(-c2nc3ncc(-c4ccccc4)cc3[nH]2)c1)N1CCCC1` . Reported TbrCatL 10’ Inhibition: -11

Record `COc1cc(CN2CCC3(C=Cc4ccccc43)CC2)cc2c1OCO2` . Reported TbrCatL 10’ Inhibition: -4

Record `O=C(Nc1cccc(-c2ccc(NCCCN3CCCC3)nc2)c1)c1ccccc1` . Reported TbrCatL 10’ Inhibition: 7

Record `COc1ccc(-c2nn(C(C)C)c3ncnc(N)c23)cc1OC` . Reported TbrCatL 10’ Inhibition: -5.6

Record `Nc1nc(N)c2c3c(sc2n1)CN(Cc1ccccc1)CC3` . Reported TbrCatL 10’ Inhibition: 23

Record CN1CCCN(C(c2ccccc2)c2ccc(Cl)cc2)CC1 (centres unmarked) . Reported TbrCatL 10’ Inhibition: 1.8

Record `CCCn1c(NC(=O)c2ccc3ccccc3n2)nc2ccccc21` . Reported TbrCatL 10’ Inhibition: -11

Record CCNC(=O)C(C)Nc1nc(-c2cccnc2)nc2sc(C)c(C)c12 (centres unmarked) . Reported TbrCatL 10’ Inhibition: -0.5

Record `COc1ccc(-c2cnc3cnc(-c4cccc(OC(C)C)c4)cn23)cc1` . Reported TbrCatL 10’ Inhibition: -8

----------
Molecular target: cruzain (Trypanosoma cruzi);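 also: at 5 µM compound concentration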
Experiment: biochemical
Conditions: 0’ (no pre-incubation); sheet Screening results
measured.quantity: Cruzain Inhibition 0’ (%)
Field: numeric (%). Do not append units.

Guide cases for Cruzain Inhibition 0’, answers given:
CCOC(=O)c1cc(-c2csc(Nc3c(C)cc(C)cc3C)n2)on1 [MMV676461] | -2.6
CCOc1ccc(-c2nc(NC(=O)CS(=O)(=O)c3ccccc3)sc2C)cc1 [MMV007638] | 7
N#CCN(CCCCN1CCN(c2ccc(F)cc2)CC1)C(=O)OCc1ccccc1 [MMV675997] | 1.2

Here is the next item to consider.
Tested system cruzain (Trypanosoma cruzi); Cruzain Inhibition 0’ recorded for CC1CC1C(=O)NC1CCN(CC2(c3ccccc3)CCCCC2)CC1 (stereo not drawn) [MMV020120] was 1.3
